Numbers sourced from ChEMBL document CHEMBL2074249.

target: Oatp3 (Solute carrier organic anion transporter family member 1A5) (Rattus norvegicus); assay: TP_TRANSPORTER: inhibition of Fexofenadine uptake (Fexofenadine: 1? uM, Bergamottin: 50 uM) in Oatp3-expressing HeLa cells; assay type: functional, cell-based; set-up: scale not given: the % may be the effect or the level left; settings: human, HeLa cells that express Oatp3, probe fexofenadine; read-out: Activity
Experimental Endpoint: activity at 50 µM
Answer format: number, then unit.

Any idea what activity at 50 µM was measured for CC(C)=CCC/C(C)=C/COc1c2ccoc2cc2oc(=O)ccc12 ?
22%

====

Target: Oatp3 (Solute carrier organic anion transporter family member 1A5) (Rattus norvegicus, UniProt O88397)
Sequence (O88397 whole entry): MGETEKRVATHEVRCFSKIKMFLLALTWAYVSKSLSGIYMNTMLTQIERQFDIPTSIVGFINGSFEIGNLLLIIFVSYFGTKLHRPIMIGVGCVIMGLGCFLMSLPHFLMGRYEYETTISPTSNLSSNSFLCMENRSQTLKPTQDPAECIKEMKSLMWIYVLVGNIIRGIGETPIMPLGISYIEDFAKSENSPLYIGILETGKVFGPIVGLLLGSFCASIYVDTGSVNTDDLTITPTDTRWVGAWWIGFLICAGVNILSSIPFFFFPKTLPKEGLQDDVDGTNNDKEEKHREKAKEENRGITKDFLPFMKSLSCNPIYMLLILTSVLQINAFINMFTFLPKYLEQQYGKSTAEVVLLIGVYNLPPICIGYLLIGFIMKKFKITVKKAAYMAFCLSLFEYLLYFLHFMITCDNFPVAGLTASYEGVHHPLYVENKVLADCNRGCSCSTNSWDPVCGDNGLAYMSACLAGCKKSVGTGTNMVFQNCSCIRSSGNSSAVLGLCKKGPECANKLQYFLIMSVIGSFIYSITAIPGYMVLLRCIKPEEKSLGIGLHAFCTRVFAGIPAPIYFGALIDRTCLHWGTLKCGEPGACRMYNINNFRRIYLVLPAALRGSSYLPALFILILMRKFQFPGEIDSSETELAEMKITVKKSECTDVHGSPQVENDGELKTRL
Assay: TP_TRANSPORTER: inhibition of Fexofenadine uptake (Fexofenadine: 1? uM, Hesperidin: 50 uM) in Oatp3-expressing HeLa cells
Type: functional, cell-based
Parameters: scale not given: the % may be the effect or the level left
Settings: human, HeLa cells that express Oatp3, probe fexofenadine; read-out: Activity
Experimental Endpoint: activity at 50 µM (%)
Entry rule: numbers only, all in %.

Any idea what activity at 50 µM was measured for COc1ccc([C@@H]2CC(=O)c3c(O)cc(O[C@@H]4O[C@H](CO[C@@H]5O[C@@H](C)[C@H](O)[C@@H](O)[C@H]5O)[C@@H](O)[C@H](O)[C@H]4O)cc3O2)cc1O [HESPERIDIN] ?
51

====

target: Oatp3 (Solute carrier organic anion transporter family member 1A5) (Rattus norvegicus); experiment: TP_TRANSPORTER: inhibition of Fexofenadine uptake (Fexofenadine: 1? uM, Naringin: 5 uM) in Oatp3-expressing HeLa cells; assay type: functional, cell-based; set-up: scale not given: the % may be the effect or the level left; details: human, HeLa cells that express Oatp3, probe fexofenadine; read-out: Activity
Experimental Endpoint: activity at 5 µM

Any idea what activity at 5 µM was measured for C[C@@H]1O[C@@H](O[C@H]2[C@H](Oc3cc(O)c4c(c3)O[C@H](c3ccc(O)cc3)CC4=O)O[C@H](CO)[C@@H](O)[C@@H]2O)[C@H](O)[C@H](O)[C@H]1O ?
36%

====

target: UniProt O88397; experiment: TP_TRANSPORTER: inhibition of Fexofenadine uptake (Fexofenadine: 1? uM, 5-Methoxypsoralen: 50 uM) in Oatp3-expressing HeLa cells; assay type: functional, cell-based; parameters: scale not given: the % may be the effect or the level left; conditions: human, HeLa cells that express Oatp3, probe fexofenadine; read-out: Activity
Experimental Endpoint: activity at 50 µM (%)
Entry rule: numbers only, all in %.

Any idea what activity at 50 µM was measured for COc1c2ccoc2cc2oc(=O)ccc12 [BERGAPTEN] ?
32

====

biological target: Oatp3 (Solute carrier organic anion transporter family member 1A5) (Rattus norvegicus, UniProt O88397); experiment: TP_TRANSPORTER: inhibition of Fexofenadine uptake (Fexofenadine: 1? uM, Naringenin: 50 uM) in Oatp3-expressing HeLa cells; type: functional, cell-based; design: scale not given: the % may be the effect or the level left; settings: human, HeLa cells that express Oatp3, probe fexofenadine; read-out: Activity
Experimental Endpoint: activity at 50 µM (%)
Entry rule: numbers only, all in %.

Any idea what activity at 50 µM was measured for O=C1C[C@@H](c2ccc(O)cc2)Oc2cc(O)cc(O)c21 ?
10

====

target: Oatp3 (Solute carrier organic anion transporter family member 1A5) (Rattus norvegicus, UniProt O88397); experiment: TP_TRANSPORTER: inhibition of Fexofenadine uptake (Fexofenadine: 1? uM, Quercetin: 5 uM) in Oatp3-expressing HeLa cells; format: functional, cell-based; parameters: scale not given: the % may be the effect or the level left; conditions: human, HeLa cells that express Oatp3, probe fexofenadine; read-out: Activity
Experimental Endpoint: activity at 5 µM (%)
Entry rule: numbers only, all in %.

Any idea what activity at 5 µM was measured for O=c1c(O)c(-c2ccc(O)c(O)c2)oc2cc(O)cc(O)c12 ?
52

====

molecular target: Oatp3 (Solute carrier organic anion transporter family member 1A5) (Rattus norvegicus, UniProt O88397); experiment: TP_TRANSPORTER: inhibition of Fexofenadine uptake (Fexofenadine: 1? uM, Hesperitin: 5 uM) in Oatp3-expressing HeLa cells; assay type: functional, cell-based; parameters: scale not given: the % may be the effect or the level left; conditions: human, HeLa cells that express Oatp3, probe fexofenadine; read-out: Activity
Experimental Endpoint: activity at 5 µM (%)
Entry rule: numbers only, all in %.

Any idea what activity at 5 µM was measured for COc1ccc([C@@H]2CC(=O)c3c(O)cc(O)cc3O2)cc1O ?
40
